- TARGET_ENTITY: T1, LukD (S. aureus, UniProt Q2FXB1 27-327)
- T1 construct: also called leukotoxin D
- T1 sequence: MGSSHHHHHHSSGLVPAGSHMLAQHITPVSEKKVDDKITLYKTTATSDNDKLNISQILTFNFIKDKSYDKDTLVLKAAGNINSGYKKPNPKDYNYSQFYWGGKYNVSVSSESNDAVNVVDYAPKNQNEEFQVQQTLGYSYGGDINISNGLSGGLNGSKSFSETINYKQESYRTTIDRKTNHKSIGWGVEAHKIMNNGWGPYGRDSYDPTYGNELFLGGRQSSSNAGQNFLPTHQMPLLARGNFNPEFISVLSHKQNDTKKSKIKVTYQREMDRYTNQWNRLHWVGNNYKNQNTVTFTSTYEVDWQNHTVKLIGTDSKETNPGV
- PROCEDURE_SUMMARY: ELISA after cis-display panning

# BINDER, binding result
rows = [
    ("Luk12 (designed binder, also called Luk12 anti-LukD FN3 domain; not shown: C-terminal poly-histidine tag) LPAPKNLVVSRVTEDSARLSWRAKPWAPKFDSFLIQYQESEKVGEAIVLTVPGSERSYDLTGLKPGTEYTVSIYGVKASEKFIESNPLSAIFTT", "binds"),
    ("Luk8 (designed binder, not shown: C-terminal poly-histidine tag) LPAPKNLVVSRVTEDSARLSWKRKPWAPIFDSFLIQYQESEKVGEAIVLTVPGSERSYDLTGLKPGTEYTVSIYGVWDHAGPKYEIESNPLSAIFTT", "binds"),
    ("Luk9 (designed binder, not shown: C-terminal poly-histidine tag) LPAPKNLVVSRVTEDSARLSWDRTYSLLNYFDSFLIQYQESEKVGEAIVLTVPGSERSYDLTGLKPGTEYTVSIYGVGGQHPTYESNPLSAIFTT", "binds"),
]
